Origin of measurements: PubChem BioAssay AID256

- System: CD2F1 mice, L1210 leukemia ip, survival T/C
- procedure.text: NCI In Vivo Anticancer Drug Screen. Data for tumor model L1210 Leukemia (intraperitoneal) in CD2F1 (CDF1) mice
- condition.parameters: endpoint: mean survival time; dose: 100.0 mg/kg/injection; schedule: Q01DX009 (ip); vehicle: saline with Tween-80; higher = longer survival
Toxic doses and inconclusive results are not listed.
T/C by entry:
recorded.metric: T/C

compound | result.value
CCCC/C=C\C(=O)OC | 104 % of control
C=CCN(CC=C)C(=O)Nc1ccc(C)c(C)c1 | 92 % of control
Cc1ccc(C(=O)Nc2ccccc2I)cc1 | 97 % of control
C=C(Br)CNC(=O)NCCN1CCOCC1 | 97 % of control
O=C(CC(NC(=O)OCc1ccccc1)C(=O)OCc1ccccc1)OCc1ccccc1 (configuration not stated) | 106 % of control
CCc1c(C)[nH]c2ccc([N+](=O)[O-])cc12 | 94 % of control
CCOC(=O)C1=NN(c2ccccc2)C(=O)C1 | 94 % of control
